- TARGET_OR_SYSTEM: AURKA (human) (UniProt O14965)
- Sequence (O14965 whole entry, looked up): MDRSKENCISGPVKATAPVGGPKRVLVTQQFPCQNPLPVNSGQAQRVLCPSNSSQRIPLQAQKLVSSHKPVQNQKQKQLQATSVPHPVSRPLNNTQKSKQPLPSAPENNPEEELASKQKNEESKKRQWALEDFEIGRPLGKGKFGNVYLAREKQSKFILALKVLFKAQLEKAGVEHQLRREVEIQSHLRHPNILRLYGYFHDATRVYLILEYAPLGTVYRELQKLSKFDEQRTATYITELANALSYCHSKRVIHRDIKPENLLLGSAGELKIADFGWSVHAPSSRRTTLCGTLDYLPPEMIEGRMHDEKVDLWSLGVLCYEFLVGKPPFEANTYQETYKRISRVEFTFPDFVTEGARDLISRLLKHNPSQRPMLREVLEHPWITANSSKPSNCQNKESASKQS
- PROCEDURE_DETAILS: radiometric filter-binding kinase assay
- MEASUREMENT_PARAMETERS: compound 1.0 µM
ENDPOINT_NAME: residual activity (%)
Write down the numeric answer in % and omit the unit.

Study these solved cases before continuing.
{"COMPOUND": "c1ccc2c(-c3cnn4cc(-c5ccc(N6CCNCC6)cc5)cnc34)ccnc2c1", "residual activity / %": 91}
{"COMPOUND": "Nc1cccc2c1CN(C1CCC(=O)NC1=O)C2=O (stereo unspecified)", "residual activity / %": 113}
{"COMPOUND": "CN(C)C/C=C/C(=O)Nc1cccc(C(=O)Nc2ccc(Nc3nccc(-c4cccnc4)n3)cc2)c1", "residual activity / %": 97}
{"COMPOUND": "COc1cc(C(=O)N2CCOCC2)c(F)cc1Nc1ncc(C(F)(F)F)c(NC2CC2)n1", "residual activity / %": 105}
{"COMPOUND": "CN1C(=O)[C@@H](Cc2c[nH]c3ccccc23)NC1=S", "residual activity / %": 101}

Quick check: residual activity of CCNc1nc(Nc2cc(F)c(C(=O)N3CCOCC3)cc2OC)ncc1C(F)(F)F ?
97

Record: Cc1ccc(-c2ccc3c(ccc4sc5c(c43)NC[C@@H](C)NC5=O)n2)cn1
102

Record: O=C(N[C@@H](COc1ccc2[nH]c(=O)[nH]c2c1)c1ccccc1)c1cccn(Cc2ccc(F)c(F)c2)c1=O
110

Record: N#Cc1c(C2CCNCC2)cc(-c2c(O)cccc2OCC2CC2)nc1N
111

Record: NCC(=O)Nc1ccc(-n2nc(C(F)(F)F)cc2-c2ccc3c(ccc4ccccc43)c2)cc1
95

Record: NC(=O)c1cc2c(-c3cccc(-c4ccccc4)c3)cnc(N)c2s1
99

Record: COc1cc(O)c2c(c1)[C@H]1OC1C[C@H](O)[C@H](O)C(=O)/C=C\C[C@H](C)OC2=O (stereo partly specified)
108

Record: O=C(NOCC(O)CO)c1ccc(F)c(F)c1Nc1ccc(I)cc1Cl (stereo unspecified)
103

Record: COc1cc(O)c2c(c1)/C=C/C[C@H](O)[C@H](O)C(=O)/C=C\C[C@H](C)OC2=O
105

###

Reported residual activity is given for each of the following compounds.
- TARGET_OR_SYSTEM: MAPK12 (human)
- PROCEDURE_DETAILS: radiometric filter-binding kinase assay
- MEASUREMENT_PARAMETERS: compound 1.0 µM
Write down the numeric answer in % and omit the unit.

{"COMPOUND": "Cc1cc(NC(=O)c2cccc(NC(=O)/C=C/CN(C)C)c2)ccc1Nc1nccc(-c2cccnc2)n1", "residual activity (%)": 95}
{"COMPOUND": "C=C1C(=O)OC2C1CC/C(C)=C/CCC1(C)OC21 (stereo not given)", "residual activity (%)": 108}

Quick check: residual activity of Cc1cccc(Nc2nn(C)c3ncnc(N)c23)c1 ?
120

Record: Cc1cc(SCc2sc(-c3ccc(C(F)(F)F)cc3)nc2C)ccc1OCC(=O)O
108

Record: CCNc1nc(Nc2cc(F)c(C(=O)N3CCOCC3)cc2OC)ncc1C(F)(F)F
99

Record: FC(F)(F)c1ccc(-c2ccc(Oc3cncc4sc(-c5nn[nH]n5)cc34)cc2)cc1
91

Record: Cc1cccc(-c2nn(C(=S)Nc3ccccc3)cc2-c2ccnc3ccccc23)n1
88

Record: C=CC(=O)N1CCC[C@@H](n2nc(-c3ccc(Oc4ccccc4)cc3)c3c(N)ncnc32)C1
112

Record: Oc1ccc2ccccc2c1SSc1c(O)ccc2ccccc12
97

Record: CN1C(=O)[C@@H](Cc2c[nH]c3ccccc23)NC1=S
111

###

- TARGET_OR_SYSTEM: CSNK1G2 (human) (UniProt P78368)
- Sequence (P78368 whole entry, looked up): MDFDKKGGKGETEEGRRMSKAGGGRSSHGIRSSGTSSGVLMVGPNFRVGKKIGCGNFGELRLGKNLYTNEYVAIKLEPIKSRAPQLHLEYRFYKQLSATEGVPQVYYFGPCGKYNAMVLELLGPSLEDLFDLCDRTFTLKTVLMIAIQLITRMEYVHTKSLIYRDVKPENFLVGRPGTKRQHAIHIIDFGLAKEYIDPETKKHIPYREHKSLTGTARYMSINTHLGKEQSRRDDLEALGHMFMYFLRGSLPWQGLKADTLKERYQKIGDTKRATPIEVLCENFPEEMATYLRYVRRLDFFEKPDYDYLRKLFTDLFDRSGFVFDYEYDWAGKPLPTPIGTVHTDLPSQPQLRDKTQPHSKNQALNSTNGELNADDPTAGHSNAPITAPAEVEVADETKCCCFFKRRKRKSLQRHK
- PROCEDURE_DETAILS: radiometric filter-binding kinase assay
- MEASUREMENT_PARAMETERS: compound 0.1 µM
Reported residual activity is given for each of the following molecules.
Write down the numeric answer in % and omit the unit.

Study these solved cases before continuing.
{"MOLECULE": "COc1ccc(N(C(=O)Nc2c(C)cccc2C)c2cc(Nc3ccc(N4CCN(C)CC4)cc3)ncn2)c(OC)c1", "residual activity, %": 93}
{"MOLECULE": "COc1cc(O)c2c(c1)[C@H]1OC1C[C@H](O)[C@H](O)C(=O)/C=C\\C[C@H](C)OC2=O (stereo not given in full)", "residual activity, %": 100}

Quick check: residual activity of CN1CCN(CCOc2cc(OC3CCOCC3)c3c(Nc4c(Cl)ccc5c4OCO5)ncnc3c2)CC1 ?
107

Record: Cc1ccc(-c2ccc3c(ccc4sc5c(c43)NC[C@@H](C)NC5=O)n2)cn1
123

Record: CCn1c(-c2nonc2N)nc2cncc(CNC3CCNCC3)c21
101

###

- TARGET_OR_SYSTEM: YES1 (human)
- PROCEDURE_DETAILS: radiometric filter-binding kinase assay
- MEASUREMENT_PARAMETERS: compound 10.0 µM
ENDPOINT_NAME: residual activity (%)
Write down the numeric answer in % and omit the unit.

{"MOLECULE": "CCCCCc1ccc(/C=C/[C@H](O)[C@@H](CO)NC)cc1", "UNIT_TEXT": "%", "QUANTITATIVE_RESULT": 109}
{"MOLECULE": "FC(F)(F)c1ccc(-c2ccc(Oc3cncc4sc(-c5nn[nH]n5)cc34)cc2)cc1", "UNIT_TEXT": "%", "QUANTITATIVE_RESULT": 87}
{"MOLECULE": "NC(=O)Nc1ccc2c(c1)/C(=C/c1cc(-c3cccnc3)c[nH]1)C(=O)N2", "UNIT_TEXT": "%", "QUANTITATIVE_RESULT": 3}
{"MOLECULE": "CC(C)C[C@H](NC(=O)CNC(=O)c1cc(Cl)ccc1Cl)B1OC(=O)CC(CC(=O)O)(C(=O)O)O1 (some centres undefined)", "UNIT_TEXT": "%", "QUANTITATIVE_RESULT": 82}
{"MOLECULE": "C=CC(=O)N1CCC[C@@H](n2nc(-c3ccc(Oc4ccccc4)cc3)c3c(N)ncnc32)C1", "UNIT_TEXT": "%", "QUANTITATIVE_RESULT": 13}
{"MOLECULE": "N#Cc1c(C2CCNCC2)cc(-c2c(O)cccc2OCC2CC2)nc1N", "UNIT_TEXT": "%", "QUANTITATIVE_RESULT": 38}
{"MOLECULE": "CCn1c(-c2nonc2N)nc2cncc(CNC3CCNCC3)c21", "UNIT_TEXT": "%", "QUANTITATIVE_RESULT": 86}
{"MOLECULE": "O=C(N[C@@H](COc1ccc2[nH]c(=O)[nH]c2c1)c1ccccc1)c1cccn(Cc2ccc(F)c(F)c2)c1=O", "UNIT_TEXT": "%", "QUANTITATIVE_RESULT": 95}

Quick check: residual activity of COc1cc2ncn(-c3cc(OCc4ccccc4S(C)(=O)=O)c(C#N)s3)c2cc1OC ?
58

###

Reported residual activity is given for each of the following molecules.
- TARGET_OR_SYSTEM: CSNK1D (human)
- PROCEDURE_DETAILS: radiometric filter-binding kinase assay
- MEASUREMENT_PARAMETERS: compound 0.1 µM
Write down the numeric answer in % and omit the unit.

Study these solved cases before continuing.
{"MOLECULE": "Cn1c(=O)c2c(ncn2C)n(C)c1=O", "residual activity / %": 118}
{"MOLECULE": "O=C(Nc1nc2cc(C(F)(F)F)cc(NC3CC3)n2n1)c1cccnc1", "residual activity / %": 93}
{"MOLECULE": "COc1ccc(N(C(=O)Nc2c(C)cccc2C)c2cc(Nc3ccc(N4CCN(C)CC4)cc3)ncn2)c(OC)c1", "residual activity / %": 85}

Quick check: residual activity of COc1ccc2c(c1)c1c3c(c4c5ccccc5n(C)c4c1n2CC(O)CN(C)C)C(=O)NC3=O (stereo not given) ?
103

Record: CCn1c(-c2nonc2N)nc2cncc(CNC3CCNCC3)c21
102

Record: CN1CCN(CCOc2cc(OC3CCOCC3)c3c(Nc4c(Cl)ccc5c4OCO5)ncnc3c2)CC1
115

Record: O=C(O)c1ccc(-c2c[nH]c3ncc(-c4ccccc4)cc23)cc1C1CCCC1
70

Record: C=CC(=O)N1CCC[C@@H](n2nc(-c3ccc(Oc4ccccc4)cc3)c3c(N)ncnc32)C1
98

Record: COc1cc(O)c2c(c1)[C@H]1OC1C[C@H](O)[C@H](O)C(=O)/C=C\C[C@H](C)OC2=O (stereo not given in full)
101

Record: NC(=O)c1cc2c(-c3cccc(-c4ccccc4)c3)cnc(N)c2s1
109

###

- TARGET_OR_SYSTEM: TBK1 (human) (UniProt Q9UHD2)
- Sequence (Q9UHD2 whole entry, looked up): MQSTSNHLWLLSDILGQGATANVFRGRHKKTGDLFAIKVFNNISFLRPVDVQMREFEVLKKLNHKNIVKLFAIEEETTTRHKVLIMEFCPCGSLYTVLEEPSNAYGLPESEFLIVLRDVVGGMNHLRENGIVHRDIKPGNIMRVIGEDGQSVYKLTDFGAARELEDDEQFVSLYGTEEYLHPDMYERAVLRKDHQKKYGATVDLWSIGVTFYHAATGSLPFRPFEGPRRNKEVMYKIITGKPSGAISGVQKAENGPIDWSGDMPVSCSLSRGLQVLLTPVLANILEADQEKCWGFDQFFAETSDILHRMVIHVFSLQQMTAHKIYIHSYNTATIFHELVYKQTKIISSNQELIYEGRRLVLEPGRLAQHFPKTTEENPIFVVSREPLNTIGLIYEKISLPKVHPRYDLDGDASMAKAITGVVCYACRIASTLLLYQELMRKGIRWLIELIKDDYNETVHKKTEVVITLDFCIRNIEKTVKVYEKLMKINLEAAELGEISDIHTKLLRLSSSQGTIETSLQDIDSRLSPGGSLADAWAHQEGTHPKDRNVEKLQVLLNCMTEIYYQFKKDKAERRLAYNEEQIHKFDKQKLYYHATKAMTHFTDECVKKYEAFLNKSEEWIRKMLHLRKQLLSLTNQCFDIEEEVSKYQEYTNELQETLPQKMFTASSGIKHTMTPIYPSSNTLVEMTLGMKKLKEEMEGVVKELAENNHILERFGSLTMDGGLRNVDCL
- PROCEDURE_DETAILS: radiometric filter-binding kinase assay
- MEASUREMENT_PARAMETERS: compound 10.0 µM
ENDPOINT_NAME: residual activity (%)
Write down the numeric answer in % and omit the unit.

Quick check: residual activity of O=c1c(O)c(-c2ccc(O)c(O)c2)oc2cc(O)c(O)c(O)c12 ?
64

Record: CCCCCc1ccc(/C=C/[C@H](O)[C@@H](CO)NC)cc1
93

Record: C[C@H]1CCCC(=O)CCC/C=C/c2cc(O)cc(O)c2C(=O)O1
80

Record: N#Cc1c(O)c2c(-c3ccc(-c4ccccc4O)cc3)csc2[nH]c1=O
67

Record: O=C(Nc1ccccc1-c1cn2c(CN3CCNCC3)csc2n1)c1cnc2ccccc2n1
56

Record: Cc1ccc(=O)n(-c2ccccc2)c1
91

Ref: the kinase profiling compilation of Christmann-Franck et al. (2016)
